Origin of values: ChEMBL document CHEMBL1139900

The reader will find reported IC50 values listed item by item below.
Target: Sphingosine 1-phosphate receptor 1 (Homo sapiens, UniProt P21453)
Sequence (P21453 whole entry): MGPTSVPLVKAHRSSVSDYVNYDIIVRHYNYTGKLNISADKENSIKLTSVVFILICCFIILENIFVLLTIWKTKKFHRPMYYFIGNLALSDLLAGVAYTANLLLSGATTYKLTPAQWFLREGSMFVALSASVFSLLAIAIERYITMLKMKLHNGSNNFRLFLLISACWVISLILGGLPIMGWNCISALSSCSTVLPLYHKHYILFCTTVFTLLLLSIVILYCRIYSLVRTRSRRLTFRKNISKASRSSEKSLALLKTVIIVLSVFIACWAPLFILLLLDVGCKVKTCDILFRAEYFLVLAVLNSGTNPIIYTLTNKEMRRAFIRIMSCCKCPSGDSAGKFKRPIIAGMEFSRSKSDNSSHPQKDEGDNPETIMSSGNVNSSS
Experiment: Antagonist activity at human S1P1 receptor expressed in CHO cell membrane by cAMP assay
Format: functional, cell-based
Enter your answer as a number in µM; do not include the unit.

Observe how each entry below is paired with its result.
>>> quantitative_readout("CCCCOc1ccc(Sc2ccc(-c3ccccc3C(O)C#CCOCCCCCCCO)cc2S(=O)(=O)O)cc1 (stereo not drawn)")
0.031
>>> quantitative_readout("CCCCCCCCCCC#CC(O)c1ccccc1-c1ccc(Sc2ccc(OCCCCCC)cc2)c(S(=O)(=O)O)c1 (stereo not drawn)")
0.52
>>> quantitative_readout("CCCCCCCCCCC#CC(O)c1sccc1-c1ccc(Oc2ccc(OCC)cc2)c(S(=O)(=O)O)c1 (stereo not drawn)")
1.3
>>> quantitative_readout("CCCCOc1ccc(Sc2ccc(-c3ccccc3C(O)C#CCOCCCCCO)cc2S(=O)(=O)O)cc1 (stereo not drawn)")
0.34
>>> quantitative_readout("CCCCCCCCCCC#CC(O)c1ccccc1-c1ccc(Sc2ccc(OC)cc2)c(S(=O)(=O)O)c1 (stereo not drawn)")
0.7

// next entry
Let me know recorded IC50 for CCCCCCCCCCC#CC(O)c1cccc(-c2ccc(Oc3ccc(OCC)cc3)c(S(=O)(=O)O)c2)c1 (stereo not drawn) , thanks.
4.6
